Values from patent US6255303A

tgt: PDE3 (Homo sapiens, UniProt Q14432)
Construct: investigated in homogenates of human blood platelets; from tissue; host or cells: human blood platelets (homogenate)
Sequence (Q14432 whole entry): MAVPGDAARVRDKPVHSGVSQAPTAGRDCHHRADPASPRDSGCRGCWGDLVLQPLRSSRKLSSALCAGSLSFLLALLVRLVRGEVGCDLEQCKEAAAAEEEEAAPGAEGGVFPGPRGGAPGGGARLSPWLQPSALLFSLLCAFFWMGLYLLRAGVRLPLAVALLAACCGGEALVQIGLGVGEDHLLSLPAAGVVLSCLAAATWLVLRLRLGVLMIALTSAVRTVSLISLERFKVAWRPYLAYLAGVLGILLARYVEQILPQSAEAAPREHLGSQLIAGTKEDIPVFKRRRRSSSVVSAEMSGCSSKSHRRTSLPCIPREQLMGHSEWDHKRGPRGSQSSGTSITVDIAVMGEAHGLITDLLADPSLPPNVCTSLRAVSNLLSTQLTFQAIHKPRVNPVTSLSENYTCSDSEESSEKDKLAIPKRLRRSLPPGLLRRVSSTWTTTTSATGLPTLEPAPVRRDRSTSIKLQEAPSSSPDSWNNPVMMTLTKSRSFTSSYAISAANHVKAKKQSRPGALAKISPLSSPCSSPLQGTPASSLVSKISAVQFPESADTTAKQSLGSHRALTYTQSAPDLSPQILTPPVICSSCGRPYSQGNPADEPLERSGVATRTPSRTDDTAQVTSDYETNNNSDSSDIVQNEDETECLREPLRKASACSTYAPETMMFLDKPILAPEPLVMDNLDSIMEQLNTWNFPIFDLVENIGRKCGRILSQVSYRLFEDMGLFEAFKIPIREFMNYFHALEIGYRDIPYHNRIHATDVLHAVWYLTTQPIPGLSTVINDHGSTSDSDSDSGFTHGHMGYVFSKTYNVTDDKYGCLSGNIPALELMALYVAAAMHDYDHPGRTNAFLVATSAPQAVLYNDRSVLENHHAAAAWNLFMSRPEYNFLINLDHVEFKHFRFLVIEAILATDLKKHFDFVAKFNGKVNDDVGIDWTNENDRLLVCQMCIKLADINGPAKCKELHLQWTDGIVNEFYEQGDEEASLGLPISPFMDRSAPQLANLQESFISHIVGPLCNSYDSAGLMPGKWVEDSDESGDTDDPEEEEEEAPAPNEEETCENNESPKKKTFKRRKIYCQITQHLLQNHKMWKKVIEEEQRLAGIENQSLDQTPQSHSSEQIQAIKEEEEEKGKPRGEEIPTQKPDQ
assayProtocol: Inhibition of PDE isoenzymes: PDE3 (cGMP-inhibited), homogenates of human blood platelets
Type: biochemical
assayConditions: 0.5 μM cAMP or cGMP, pH 7.4, 37° C., 15 min, read-out: -log IC50 PDE3 (converted)
Measured IC50 of individual entries
Output spec: scalar in nM, unitless text.

>>> testvalue("COc1ccc(C2=NN(C(C)CCC(=O)Nc3ccc(C4=NNC(=O)CC4C)cc3)C(=O)[C@H]3CC=CC[C@@H]23)cc1OC (relative stereo) [Compound 8]")
100
>>> testvalue("COc1ccc(C2=NN(CCCCOc3ccc(C4=NNC(=O)CC4C)cc3)C(=O)[C@H]3CC=CC[C@@H]23)cc1Cl (relative stereo) [Compound 13]")
35.5
>>> testvalue("COc1ccc(C2=NN(c3ccc(C(=O)Nc4ccc(C5=NNC(=O)CC5C)cc4)cc3)C(=O)[C@H]3CC=CC[C@@H]23)cc1OC (relative stereo) [Compound 4]")
891
>>> testvalue("COc1ccc(C2=NN(c3ccc(C(=O)Nc4ccc(-c5ccc(=O)[nH]n5)cc4)cc3)C(=O)[C@H]3CC=CC[C@@H]23)cc1OC (relative stereo) [Compound 9]")
4900
>>> testvalue("CCOc1ccc(C2=NN(CCCCOc3ccc(C4=NNC(=O)CC4C)cc3)C(=O)[C@H]3CC=CC[C@@H]23)cc1OCC (relative stereo) [Compound 15]")
209
>>> testvalue("COc1ccc(C2=NN(CC(=O)Nc3ccc(C4=NNC(=O)CC4C)cc3)C(=O)[C@H]3CC=CC[C@@H]23)cc1OC (relative stereo) [Compound 7]")
182
>>> testvalue("COc1ccc(C2=NN(CCCCC(=O)Nc3ccc(-c4ccc(=O)[nH]n4)cc3)C(=O)[C@@H]3CC=CC[C@H]23)cc1OC (relative stereo) [Compound 6]")
832
>>> testvalue("COc1ccc(C2=NN(c3ccc(C4=NNC(=O)CC4C)cc3)C(=O)[C@H]3CC=CC[C@@H]23)cc1Cl (relative stereo) [Compound 12]")
81.3

We now examine a further molecule.
Per the record, COc1ccc(C2=NN(c3ccc(C4=NNC(=O)CC4C)cc3)C(=O)[C@H]3CC=CC[C@@H]23)cc1OC (relative stereo) [Compound 2] has IC50 of 204

###

tgt: PDE4
assayProtocol: Inhibition of PDE isoenzymes: PDE4 (cAMP-specific), cytosol of human polymorphonuclear leukocytes, cAMP as substrate
Format: biochemical
assayConditions: cytosol of human PMNL; 0.5 μM cAMP; motapizone (1 μM) to suppress PDE3; pH 7.4, 37° C., 15 min
Where -log IC50 PDE4 equals or exceeds 8 mol/l, the correct label is rule met; where it does not, the label is rule not met.

Look over these answered cases.
>>> group("COc1ccc(C2=NN(c3ccc(C4=NNC(=O)CC4C)cc3)C(=O)[C@H]3CC=CC[C@@H]23)cc1Cl (relative stereo)")
"rule not met"
>>> group("CCOc1ccc(C2=NN(CCCCOc3ccc(C4=NNC(=O)CC4C)cc3)C(=O)[C@H]3CC=CC[C@@H]23)cc1OCC (relative stereo)")
"rule met"
>>> group("COc1ccc(C2=NN(c3ccc(C(=O)Nc4ccc(C5=NNC(=O)CC5C)cc4)cc3)C(=O)[C@H]3CC=CC[C@@H]23)cc1OC (relative stereo)")
"rule met"

# ---- query compound ----
Asked: Reported -log IC50 PDE4 at or above 8 mol/l? COc1ccc(C2=NN(c3ccc(C4=NNC(=O)CC4C)cc3)C(=O)[C@@H]3CC=CC[C@H]23)cc1OC (stereo partly drawn)
Given back: rule met
